experiment: Kinetic solubility assay; format: physicochemical; conditions: phosphate buffer, pH 7.4, aqueous buffer, kinetic from dmso stock
Task for the reader: assign each of the following molecules its reported solubility at 24 h.

I need solubility at 24 h for every entry listed below, if you could help.
1. Cc1ccc(-c2noc(C3CC(F)(F)C3)n2)cc1NC(=O)c1cnc2ccccn12 [Compound A, reference compound]
2. Cc1ccc(-c2noc([C@H]3C[C@@H]3F)n2)cc1NC(=O)c1cnc2cc(COCC(C)(C)O)ccn12 [Compound I-71]

["≤ 2 µM", "10 to 50 µM"]

###

target: CSF-1R (Homo sapiens, UniProt P07333); construct: purchased Invitrogen PV3249 (lot 662393N); experiment: HTRF biochemical assay, CSF-1R; settings: Table 4
Sequence (P07333 20-972): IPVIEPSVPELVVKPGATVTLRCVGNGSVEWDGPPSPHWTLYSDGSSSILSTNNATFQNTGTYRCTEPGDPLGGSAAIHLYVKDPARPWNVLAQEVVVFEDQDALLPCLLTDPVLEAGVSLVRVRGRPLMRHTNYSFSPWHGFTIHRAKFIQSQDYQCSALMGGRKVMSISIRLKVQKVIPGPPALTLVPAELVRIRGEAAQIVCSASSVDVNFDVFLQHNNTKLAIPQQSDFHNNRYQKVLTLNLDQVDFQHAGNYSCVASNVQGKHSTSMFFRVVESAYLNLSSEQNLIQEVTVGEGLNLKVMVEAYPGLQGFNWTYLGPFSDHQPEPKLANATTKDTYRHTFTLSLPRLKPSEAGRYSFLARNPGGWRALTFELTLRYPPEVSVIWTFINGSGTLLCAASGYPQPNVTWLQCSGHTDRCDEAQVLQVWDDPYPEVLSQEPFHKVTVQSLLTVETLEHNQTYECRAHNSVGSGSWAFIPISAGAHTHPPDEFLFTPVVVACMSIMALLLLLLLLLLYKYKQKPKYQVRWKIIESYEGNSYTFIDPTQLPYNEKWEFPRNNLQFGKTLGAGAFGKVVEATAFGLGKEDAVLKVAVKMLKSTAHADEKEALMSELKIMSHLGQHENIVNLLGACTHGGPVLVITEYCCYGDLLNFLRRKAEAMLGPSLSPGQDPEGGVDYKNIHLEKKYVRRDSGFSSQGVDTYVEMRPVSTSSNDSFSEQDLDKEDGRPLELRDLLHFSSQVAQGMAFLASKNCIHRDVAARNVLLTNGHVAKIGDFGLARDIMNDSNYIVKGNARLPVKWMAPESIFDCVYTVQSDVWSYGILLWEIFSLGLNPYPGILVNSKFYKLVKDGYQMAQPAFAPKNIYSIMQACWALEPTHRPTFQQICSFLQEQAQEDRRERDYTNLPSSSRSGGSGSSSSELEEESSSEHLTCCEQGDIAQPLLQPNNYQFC
pIC50: −log10 of the molar value.
recordedEndpoint: pIC50

INSERT INTO measurements (compound, recordedvalue) VALUES
  ('Cc1ccc(-c2noc(CC(O)C(F)F)n2)cc1NC(=O)c1cnc2ccccn12 (stereo not drawn) [Compound I-122]', '6.30 to 7.30'),
  ('Cc1ccc(-c2noc([C@H]3C[C@@H]3F)n2)cc1NC(=O)c1cnc2cc(OC(F)(F)F)ccn12 [Compound I-87]', '6.30 to 7.30'),
  ('Cc1ccc(-c2noc([C@@H]3CC(F)(F)CN3)n2)cc1NC(=O)c1cnc2cc(COCCO)ccn12 [Compound I-111]', '6.30 to 7.30'),
  ('COc1ccn2c(C(=O)Nc3cc(-c4noc(C[C@H](C)O)n4)ccc3C)cnc2c1 [Compound I-94]', '≥ 7.30'),
  ('Cc1ccc(-c2noc(CC(C)(C)O)n2)cc1NC(=O)c1cnc2ccccn12 [Compound I-336]', '6.30 to 7.30');

Quick request: pIC50 for each listed item, please.
1. Cc1ccc(-c2noc(CCO)n2)cc1NC(=O)c1cnc2ccccn12 [Compound I-306]
2. COc1ccc2ncc(C(=O)Nc3cc(-c4noc(C[C@H](C)O)n4)ccc3C)n2c1 [Compound I-89]
3. COc1ccn2c(C(=O)Nc3cc(-c4noc(CC5CC(F)(F)C5)n4)ccc3C)cnc2c1 [Compound I-91]
4. Cc1ccc(-c2noc(C3CC(OCCF)C3)n2)cc1NC(=O)c1cnc2ccccn12 (stereo not drawn) [Compound I-369]
5. COCCOCc1ccn2c(C(=O)Nc3cc(-c4noc([C@H]5C[C@@H]5F)n4)ccc3C)cnc2c1 [Compound I-84]

1: 5.30 to 6.30; 2: 6.30 to 7.30; 3: 6.30 to 7.30; 4: 4.52 to 5.30; 5: ≥ 7.30

Go through the items and report each one's pIC50.
1. COc1ccn2c(C(=O)Nc3cc(-c4noc(CC(O)C(F)F)n4)ccc3C)cnc2c1 (single isomer, unassigned) [Compound I-76]
2. Cc1ccc(-c2noc([C@H]3C[C@@H]3F)n2)cc1NC(=O)c1cnc2cc(COCC(C)(C)O)ccn12 [Compound I-71]
3. COC(=O)N1CC(c2nc(-c3ccc(C)c(NC(=O)c4cnc5cc(CO)ccn45)c3)no2)C1 [Compound I-120]
4. Cc1ccc2ncc(C(=O)Nc3cc(-c4noc([C@H]5C[C@@H]5F)n4)ccc3C)n2c1 [Compound I-108]
5. Cc1nc(-c2ccc(F)c(NC(=O)c3cnn4cc(-c5ccn(C)n5)ccc34)c2)no1 [Compound I-657]

1: ≥ 7.30; 2: ≥ 7.30; 3: 4.52 to 5.30; 4: ≥ 7.30; 5: 6.30 to 7.30

###

molecular target: wtKIT (Homo sapiens, UniProt P10721); construct: 1888289AM in the reaction mixtures; assay: HTRF biochemical assay, wtKIT (phosphorylation of a peptide substrate); conditions: Table 4
Sequence (P10721 26-976): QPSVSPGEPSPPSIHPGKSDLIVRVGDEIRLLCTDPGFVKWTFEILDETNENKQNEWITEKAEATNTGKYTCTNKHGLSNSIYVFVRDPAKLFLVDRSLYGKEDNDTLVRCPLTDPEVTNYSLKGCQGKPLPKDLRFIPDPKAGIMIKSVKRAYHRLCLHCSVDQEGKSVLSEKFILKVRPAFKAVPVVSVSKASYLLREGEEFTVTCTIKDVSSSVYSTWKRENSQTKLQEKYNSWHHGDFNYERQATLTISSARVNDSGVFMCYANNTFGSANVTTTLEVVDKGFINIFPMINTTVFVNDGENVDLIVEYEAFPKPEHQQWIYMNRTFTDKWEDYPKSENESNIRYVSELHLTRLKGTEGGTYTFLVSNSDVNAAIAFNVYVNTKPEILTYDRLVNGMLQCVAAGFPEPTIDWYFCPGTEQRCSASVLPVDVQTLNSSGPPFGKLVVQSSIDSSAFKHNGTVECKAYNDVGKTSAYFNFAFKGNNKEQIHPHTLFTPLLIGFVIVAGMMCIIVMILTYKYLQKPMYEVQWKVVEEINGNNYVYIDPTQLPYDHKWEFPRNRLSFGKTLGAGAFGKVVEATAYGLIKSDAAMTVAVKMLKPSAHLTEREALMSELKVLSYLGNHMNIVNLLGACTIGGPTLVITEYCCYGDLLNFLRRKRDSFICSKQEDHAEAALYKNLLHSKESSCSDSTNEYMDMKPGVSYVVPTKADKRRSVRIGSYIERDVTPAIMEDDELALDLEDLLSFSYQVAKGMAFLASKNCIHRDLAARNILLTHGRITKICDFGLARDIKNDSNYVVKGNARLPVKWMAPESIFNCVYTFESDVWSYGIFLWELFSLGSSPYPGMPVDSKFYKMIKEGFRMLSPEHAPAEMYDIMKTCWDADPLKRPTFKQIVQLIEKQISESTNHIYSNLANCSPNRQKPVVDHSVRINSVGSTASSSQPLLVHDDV
recordedEndpoint: IC50

Below, each entry is followed by its recorded IC50 result.
INSERT INTO measurements (compound, recordedvalue) VALUES
  ('Cc1ccc(-c2noc(-c3ccccc3)n2)cc1NC(=O)c1cnc2cc(COCCO)ccn12', '≤ 50 nM'),
  ('Cc1cc(C)c(-c2noc(C3CC3(F)F)n2)cc1NC(=O)c1cnc2ccccn12 (racemic)', '≤ 50 nM'),
  ('COCc1ccn2c(C(=O)Nc3cc(-c4noc(C)n4)ccc3F)cnc2c1', '500 to 5000 nM'),
  ('Cc1ccc(-c2noc([C@H]3C[C@@H]3F)n2)cc1NC(=O)c1cnc2cc(C(C)(C)CO)ccn12', '50 to 500 nM'),
  ('Cc1nc(-c2ccc(C)c(NC(=O)c3cnc4ccc(-c5cscn5)cn34)c2)no1', '≤ 50 nM');

// for each compound below, give its IC50
1. Cc1nc(-c2ccc(C)c(NC(=O)c3cnn4cc(-c5cscn5)ccc34)c2)no1
2. Cc1ccc(-c2noc([C@H]3C[C@@H]3F)n2)cc1NC(=O)c1cnc2cc(COCC(C)(C)O)c(F)cn12
3. CCc1nc(-c2ccc(C)c(NC(=O)c3cnc4cc(COCCO)ccn34)c2)no1

["≤ 50 nM", "≤ 50 nM", "≤ 50 nM"]

###

assay: Three time point assay for plasma, brain and testes distribution after oral dosing; type: in vivo, rat; settings: male, SD, testes, 10 mg/kg; rat, oral dosing, time point 0.5 h; read-out: Testes concentration
recordedEndpoint: concentration at 0.5 h (ng/g)
Give bare numbers, in ng/g.

concentration at 0.5 h reported for this molecule Cc1ccc(-c2noc([C@H]3C[C@@H]3F)n2)cc1NC(=O)c1cnc2cc(COCC(C)(C)O)ccn12 : 166

###

molecular target: CSF-1R (Homo sapiens, UniProt P07333); construct: purchased Invitrogen PV3249 (lot 662393N); test: Caliper biochemical assay, CSF-1R; conditions: Table 6
Please respond with reported IC50 for every item in the list.

INSERT INTO results (molecule, assaysystem, recordedendpoint, recordedvalue) VALUES
  ('COC12CC(c3nc(-c4ccc(C)c(NC(=O)c5cnc6ccccn56)c4)no3)(C1)C2', 'CSF-1R (Homo sapiens, UniProt P07333)', 'IC50', '50 to 500 nM'),
  ('COC(=O)N1CC(c2nc(-c3ccc(C)c(NC(=O)c4cnn5cc(C#N)ccc45)c3)no2)C1', 'CSF-1R (Homo sapiens, UniProt P07333)', 'IC50', '50 to 500 nM'),
  ('COC(=O)N1CC(c2nc(-c3ccc(C)c(NC(=O)c4cnn5ccc(Br)cc45)c3)no2)C1', 'CSF-1R (Homo sapiens, UniProt P07333)', 'IC50', '≤ 50 nM'),
  ('Cc1ccc(-c2noc([C@H]3C[C@@H]3F)n2)cc1NC(=O)c1cnc2cc(N3CCCCC3)ccn12', 'CSF-1R (Homo sapiens, UniProt P07333)', 'IC50', '≤ 50 nM'),
  ('Cc1ccc(-c2noc([C@H]3CC(F)(F)CN3)n2)cc1NC(=O)c1cnc2ccccn12', 'CSF-1R (Homo sapiens, UniProt P07333)', 'IC50', '50 to 500 nM'),
  ('Cc1ccc(-c2noc([C@@H]3CC4(CC4)CN3)n2)cc1NC(=O)c1cnc2ccccn12', 'CSF-1R (Homo sapiens, UniProt P07333)', 'IC50', '≤ 50 nM'),
  ('Cc1ccc(-c2noc(C3CCN3S(C)(=O)=O)n2)cc1NC(=O)c1cnc2ccccn12 (stereo not drawn) [Compound I-331]', 'CSF-1R (Homo sapiens, UniProt P07333)', 'IC50', '≤ 50 nM'),
  ('Cc1ccc(-c2noc(CC(O)C(F)(F)F)n2)cc1NC(=O)c1cnc2ccccn12 (racemic)', 'CSF-1R (Homo sapiens, UniProt P07333)', 'IC50', '50 to 500 nM');

For every item below, please supply its IC50.
1. Cc1ccc(-c2noc([C@H]3CCC(=O)N3)n2)cc1NC(=O)c1cnc2ccccn12 (racemic)
2. Cc1ccc(-c2noc([C@@H]3CCN3CC(F)(F)F)n2)cc1NC(=O)c1cnc2ccccn12 (racemic)

1. ≤ 50 nM
2. ≤ 50 nM

Respectfully, I request IC50 for each entry included below.
1. Cc1ccc(-c2noc([C@@H]3CCC(F)(F)CN3)n2)cc1NC(=O)c1cnc2ccccn12 (racemic)
2. Cc1ccc(-c2noc([C@H](C)NS(C)(=O)=O)n2)cc1NC(=O)c1cnc2ccccn12
3. COC(=O)N1CC(c2nc(-c3ccc(C)c(NC(=O)c4cnn5cc(Br)ccc45)c3)no2)C1
4. COC(=O)CS(=O)(=O)N1CC(c2nc(-c3ccc(C)c(NC(=O)c4cnc5ccccn45)c3)no2)C1
5. Cc1ccc(-c2noc([C@H]3C[C@@H]3F)n2)cc1NC(=O)c1cnc2ccc(F)cn12

1: 50 to 500 nM; 2: 50 to 500 nM; 3: ≤ 50 nM; 4: 500 to 5000 nM; 5: 50 to 500 nM

###

target: wtKIT (Homo sapiens); construct: 1888289AM in the reaction mixtures; assay: Caliper biochemical assay, wtKIT; conditions: Table 6, read-out: KIT Biochemical IC50 avg
Give measured IC50 for each item. Keep answers brief.

Below: 2 molecules and their reported IC50.
INSERT INTO measurements (molecule, assaysystem, recordedendpoint, recordedvalue) VALUES
  ('Cc1ccc(-c2noc(C(C)O)n2)cc1NC(=O)c1cnc2ccccn12 (racemic)', 'wtKIT (Homo sapiens)', 'IC50', '50 to 500 nM'),
  ('COCCS(=O)(=O)N1CC(c2nc(-c3ccc(C)c(NC(=O)c4cnc5ccccn45)c3)no2)C1', 'wtKIT (Homo sapiens)', 'IC50', '≤ 50 nM');

Would you mind giving IC50 for every molecule in the list below?
1. COC(=O)N1CC(c2nc(-c3ccc(C)c(NC(=O)c4cnc5cc(OCCO)ccn45)c3)no2)C1
2. Cc1ccc(-c2noc(C3CC4(CCC4)C3)n2)cc1NC(=O)c1cnc2ccccn12
3. Cc1ccc(-c2noc([C@H]3C[C@@H]3F)n2)cc1NC(=O)c1cnc2cc(NS(=O)(=O)c3c(C)noc3C)ccn12

≤ 50 nM
≤ 50 nM
50 to 500 nM

Below are 2 molecules. Give each one its IC50.
1. Cc1nc(-c2ccc(C)c(NC(=O)c3cnc4ccc(NCCO)cn34)c2)no1
2. Cc1ccc(-c2noc([C@H]3CCN3C3CCC3)n2)cc1NC(=O)c1cnc2ccccn12

≤ 50 nM
≤ 50 nM

src = patent US20240254119A1
